# measured target: T1, recombinant human soluble gpNMB (recombinant human gpNMB-FLAG-His) (human, UniProt Q14956 23-498)
# T1 sequence: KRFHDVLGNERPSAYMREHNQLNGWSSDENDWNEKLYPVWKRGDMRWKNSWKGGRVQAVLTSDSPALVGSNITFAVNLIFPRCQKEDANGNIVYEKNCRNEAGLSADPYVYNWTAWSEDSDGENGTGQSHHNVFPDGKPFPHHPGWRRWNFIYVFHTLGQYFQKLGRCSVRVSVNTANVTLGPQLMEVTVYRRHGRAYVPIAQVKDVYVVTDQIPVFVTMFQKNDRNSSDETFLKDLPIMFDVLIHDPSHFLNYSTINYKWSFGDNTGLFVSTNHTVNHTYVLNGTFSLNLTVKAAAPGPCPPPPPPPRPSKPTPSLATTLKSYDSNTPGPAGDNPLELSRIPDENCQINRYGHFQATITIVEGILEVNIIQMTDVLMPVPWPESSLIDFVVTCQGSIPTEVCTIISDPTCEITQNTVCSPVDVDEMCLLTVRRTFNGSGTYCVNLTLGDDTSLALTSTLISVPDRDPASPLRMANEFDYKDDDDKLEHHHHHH
# assay summary: SPR single-cycle kinetics, antibody over captured gpNMB-FLAG-His, 36C, mean of 2
measured parameter: kon (M⁻¹ s⁻¹)

>>> measured_value("hGPN18-5_H3L1 (antibody, V domains shown, humanized; also called hGPN18-5 VH3+VL1) VH: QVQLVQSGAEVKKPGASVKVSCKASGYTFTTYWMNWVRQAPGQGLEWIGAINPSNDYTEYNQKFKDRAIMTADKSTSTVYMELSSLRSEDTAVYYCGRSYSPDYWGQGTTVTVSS VL: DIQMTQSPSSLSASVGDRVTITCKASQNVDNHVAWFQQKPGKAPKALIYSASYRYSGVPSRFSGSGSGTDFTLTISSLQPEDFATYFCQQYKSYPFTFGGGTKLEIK")
142000
